# target.or.test.system: HaCaT (EGFR WT) (Homo sapiens, UniProt P00533)
# Sequence (P00533 25-1210): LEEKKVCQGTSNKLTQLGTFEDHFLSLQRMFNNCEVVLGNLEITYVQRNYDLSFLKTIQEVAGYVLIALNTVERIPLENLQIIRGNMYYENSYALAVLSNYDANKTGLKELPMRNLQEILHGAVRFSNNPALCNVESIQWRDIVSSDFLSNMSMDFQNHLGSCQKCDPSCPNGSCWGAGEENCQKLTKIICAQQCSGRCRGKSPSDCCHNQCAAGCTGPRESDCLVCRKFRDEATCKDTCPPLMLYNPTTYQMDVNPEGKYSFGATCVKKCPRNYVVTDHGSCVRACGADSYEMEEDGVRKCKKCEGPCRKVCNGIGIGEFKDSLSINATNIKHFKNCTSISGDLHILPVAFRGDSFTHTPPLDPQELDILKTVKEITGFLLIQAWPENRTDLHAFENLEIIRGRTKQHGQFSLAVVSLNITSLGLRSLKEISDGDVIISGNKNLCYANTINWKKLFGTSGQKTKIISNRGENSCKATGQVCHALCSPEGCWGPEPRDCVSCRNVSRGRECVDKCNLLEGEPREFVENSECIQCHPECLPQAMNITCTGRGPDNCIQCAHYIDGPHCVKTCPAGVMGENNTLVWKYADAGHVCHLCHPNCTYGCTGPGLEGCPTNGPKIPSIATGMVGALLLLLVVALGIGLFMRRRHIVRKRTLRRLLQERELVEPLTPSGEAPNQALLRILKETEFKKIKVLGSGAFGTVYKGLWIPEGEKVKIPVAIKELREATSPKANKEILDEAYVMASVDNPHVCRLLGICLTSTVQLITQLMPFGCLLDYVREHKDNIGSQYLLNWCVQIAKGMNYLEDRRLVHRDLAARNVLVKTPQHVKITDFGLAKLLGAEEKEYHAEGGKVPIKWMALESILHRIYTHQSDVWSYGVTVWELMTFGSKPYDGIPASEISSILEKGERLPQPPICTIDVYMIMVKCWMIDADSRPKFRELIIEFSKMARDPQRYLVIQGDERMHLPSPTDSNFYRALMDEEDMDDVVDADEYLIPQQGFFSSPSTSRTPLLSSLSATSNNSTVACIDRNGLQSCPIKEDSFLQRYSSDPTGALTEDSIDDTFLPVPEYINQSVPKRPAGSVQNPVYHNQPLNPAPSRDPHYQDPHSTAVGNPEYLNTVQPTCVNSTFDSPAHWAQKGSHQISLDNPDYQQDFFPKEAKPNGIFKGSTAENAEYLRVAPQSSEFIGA
# assay: EGFR target modulation in HaCaT (EGFR-WT) cell line (phospho-EGFR Y1173 ELISA)
# test.context: value in parentheses
# Protocol: EGFR Target Modulation in HaCaT (EGFR-WT) Cell Line Tissue Culture. […] The serial diluted compounds were transferred to the plate containing cells by using a 50 nl Pin Head device (Perkin Elmer) and the cells were placed back in the incubator for 3 hours. […] Phospho-EGFR ([…]) ELISA. […] Signal was read on EnVision plate reader using built-in UltraLUM setting. […] With these parameters, the IC50's for each compound in each cell line was calculated using non-linear curve fitting analysis.
metric: IC50 (nM)

Recorded IC50 for C=CC(=O)N1CCCC[C@@H](n2c(NC(=O)c3ccnc(C)c3)nc3ccc(OCCN4CCCC4)c(Cl)c32)C1 , please? 44

Recorded IC50 for C=CC(=O)N1CCCC[C@@H](n2c(NC(=O)c3cc(C)nc(C)c3)nc3cc(CN4CC[C@@H](F)C4)cc(C)c32)C1 , please? 84

Recorded IC50 for C=CC(=O)N1CCCC[C@@H](n2c(NC(=O)c3ccnc(C)c3)nc3cc(CN4CC[C@@H](OC)C4)cc(C)c32)C1 , please? 59

The origin of these recorded values is patent US9440957B2.
